# TARGET SYSTEM: JAK3 (Homo sapiens, UniProt P52333)
# Construct: 5 μl of catalytic domain recombinant Kinase enzyme+Tyr peptide substrate (Invitrogen, CA)
# Sequence (P52333 822-1111 limits assumed): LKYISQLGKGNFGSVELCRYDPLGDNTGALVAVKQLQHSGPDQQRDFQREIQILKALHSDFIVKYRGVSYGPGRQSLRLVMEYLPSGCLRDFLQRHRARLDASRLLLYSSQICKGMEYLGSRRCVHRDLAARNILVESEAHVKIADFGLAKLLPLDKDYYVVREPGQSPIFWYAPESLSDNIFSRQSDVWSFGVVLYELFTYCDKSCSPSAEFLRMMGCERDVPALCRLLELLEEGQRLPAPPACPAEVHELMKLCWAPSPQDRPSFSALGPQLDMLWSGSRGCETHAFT
# METHOD DESCRIPTION: Z'-LYTE kinase assay JAK3
MEASURE NAME: IC50

# lookup: COc1ccc(Nc2cc(NCc3cccc(F)c3F)c(C(N)=O)cn2)cc1 [Example 101] on JAK3 (Homo sapiens, UniProt P52333), IC50 = 10 to 100 nM

CN(C)C(=O)C1CCN(c2ccc(Nc3cc(NCc4cccc5ccsc45)c(C(N)=O)cn3)cc2)CC1 [Example 350] tested on JAK3 (Homo sapiens, UniProt P52333) gave IC50: < 1 nM

The measured IC50 that NC(=O)c1cnc(Nc2ccc3ccncc3c2)cc1NCc1ccccc1 [Example 89] showed for JAK3 (Homo sapiens, UniProt P52333) is 100 to 1000 nM

Entry NC(=O)c1cnc(Nc2ccc(C3CCOCC3)cc2)cc1NC1CCOCC1 [Example 139] : IC50 on JAK3 (Homo sapiens, UniProt P52333) = 100 to 1000 nM

IC50 of NC(=O)c1cnc(Nc2ccc(C3CCOCC3)cc2)cc1NC1CCCC1 [Example 150] , assay on JAK3 (Homo sapiens, UniProt P52333), is 100 to 1000 nM

Summary line: CC(=O)Nc1ccc(Nc2cc(NCc3cccc4ccsc34)c(C(N)=O)cn2)cc1 [Example 471] , JAK3 (Homo sapiens, UniProt P52333), reported IC50 = 1 to 10 nM

Simply: CN(C)C(=O)C1CN(c2ccc(Nc3cc(NCc4ccccc4)c(C(N)=O)cn3)cc2)C1 [Example 331] , JAK3 (Homo sapiens, UniProt P52333), IC50 = 1 to 10 nM

Form field IC50 for item CC(=O)N1CCC(CNc2cc(Nc3ccc(C(=O)N4CCC4)cc3)ncc2C(N)=O)CC1 [Example 50] on JAK3 (Homo sapiens, UniProt P52333): > 1000 nM

The molecule CS(=O)(=O)Cc1ccc(Nc2cc(NCc3cccc(-c4ccncc4)c3)c(C(N)=O)cn2)cc1 [Example 418] on JAK3 (Homo sapiens, UniProt P52333): IC50 was 1 to 10 nM

The molecule COc1ccc(Nc2cc(Nc3ccc(OC)cc3)c(C(N)=O)cn2)cc1 [Example 34] , when measured on JAK3 (Homo sapiens, UniProt P52333), yielded IC50 of > 1000 nM

Record for CC(=O)N(C)c1ccc(Nc2cc(NCc3cccc(F)n3)c(C(N)=O)cn2)cc1 [Example 485] under target or system JAK3 (Homo sapiens, UniProt P52333): IC50 reported as 10 to 100 nM

Observed IC50 on JAK3 (Homo sapiens, UniProt P52333), entry CC(=O)N1CCN(c2ccc(Nc3cc(NCC4CC4)c(C(N)=O)cn3)cc2)CC1 [Example 238] , equals 100 to 1000 nM

For the molecule CCC(=O)N1CC(c2ccc(Nc3cc(NCc4cccc(F)n4)c(C(N)=O)cn3)cc2)C1 [Example 490] , the measured IC50 on JAK3 (Homo sapiens, UniProt P52333) was 10 to 100 nM

Observed IC50 on JAK3 (Homo sapiens, UniProt P52333), entry NC(=O)c1cnc(Nc2cccc(Cl)c2)cc1NCc1cncc(F)c1 [Example 307] , equals 10 to 100 nM

Item: NC(=O)c1cnc(Nc2ccc(C3CNC3)cc2)cc1NCc1cc(F)ccc1F [Example 213] | System: JAK3 (Homo sapiens, UniProt P52333) | IC50: 1 to 10 nM

Known value: JAK3 (Homo sapiens, UniProt P52333) IC50 of the molecule CCS(=O)(=O)N1CCC(Nc2cc(Nc3ccc(C4CCOCC4)cc3)ncc2C(N)=O)CC1 [Example 166] equals 100 to 1000 nM

# IC50 measured on JAK3 (Homo sapiens, UniProt P52333) for item CCC(=O)N1CCC(c2ccc(Nc3cc(NCc4cccnc4)c(C(N)=O)cn3)cc2)CC1 [Example 187] = 10 to 100 nM

Kindly note: JAK3 (Homo sapiens, UniProt P52333), NC(=O)c1cc(F)c(Nc2ccc(OCCN3CCCC3)cc2)nc1NCc1ccccc1 [Example 26] , IC50 value reported: > 1000 nM

Observed IC50 on JAK3 (Homo sapiens, UniProt P52333), entry COCCN(C)C(=O)c1ccc(Nc2cc(NCc3ccccc3)c(C(N)=O)cn2)cc1C [Example 453] , equals 1 to 10 nM

Record CN(C)C(=O)c1ccc(Nc2cc(NCc3cccc(-c4ccncc4)c3)c(C(N)=O)cn2)cc1 [Example 412] / JAK3 (Homo sapiens, UniProt P52333), IC50 recorded as 1 to 10 nM

The value of IC50 recorded for NC(=O)c1cnc(Nc2cccc(OCCN3CCOCC3)c2)cc1NCc1cccc(F)c1 [Example 228] when tested on JAK3 (Homo sapiens, UniProt P52333) reads 1 to 10 nM

GET /values?item= COCC(=O)N1CCC(c2ccc(Nc3cc(NCc4ccccc4F)c(C(N)=O)cn3)cc2)CC1 [Example 116] &system= JAK3 (Homo sapiens, UniProt P52333) returns IC50: 1 to 10 nM

Given the molecule CCC(=O)N1CC(c2ccc(Nc3cc(NCc4ccccc4)c(C(N)=O)cn3)cc2)C1 [Example 326] and test system JAK3 (Homo sapiens, UniProt P52333), the measured IC50 is 1 to 10 nM

Form field, IC50 with JAK3 (Homo sapiens, UniProt P52333), item COC(=O)N(C)c1ccc(Nc2cc(NCc3cccc4cc[nH]c34)c(C(N)=O)cn2)cc1 [Example 482] : 10 to 100 nM

CCC(=O)N1CCC(c2ccc(Nc3cc(NCc4ccc(F)c(F)c4)c(C(N)=O)cn3)cc2)CC1 [Example 148] tested on JAK3 (Homo sapiens, UniProt P52333) gave IC50: 100 to 1000 nM

The molecule COC(=O)N(C)c1ccc(Nc2cc(NCc3cncc(F)c3)c(C(N)=O)cn2)cc1 [Example 479] on JAK3 (Homo sapiens, UniProt P52333): IC50 was 10 to 100 nM

Field IC50 (system: JAK3 (Homo sapiens, UniProt P52333)) for entry CC(=O)N(C)c1ccc(Nc2cc(NCc3cccc4ccsc34)c(C(N)=O)cn2)cc1 [Example 468] = 1 to 10 nM

The molecule CN(C)C(=O)C1CCN(c2ccc(Nc3cc(NCc4ccccc4)c(C(N)=O)cn3)cc2)CC1 [Example 343] , when measured on JAK3 (Homo sapiens, UniProt P52333), yielded IC50 of 1 to 10 nM

Tested on JAK3 (Homo sapiens, UniProt P52333): CS(=O)(=O)N1CC(c2ccc(Nc3cc(NCc4ccccc4)c(C(N)=O)cn3)cc2)C1 [Example 335] . Observed IC50: 10 to 100 nM

The reported IC50 value, JAK3 (Homo sapiens, UniProt P52333), for CCC(=O)N1CCC(c2ccc(Nc3cc(NCc4cccs4)c(C(N)=O)cn3)cc2)CC1 [Example 197] reads 1 to 10 nM

Sample CN(C)C(=O)C1CCN(c2ccc(Nc3cc(NCc4cccc5sccc45)c(C(N)=O)cn3)cc2)CC1 [Example 344] , system: JAK3 (Homo sapiens, UniProt P52333). Its IC50 is 1 to 10 nM

Bench note, JAK3 (Homo sapiens, UniProt P52333): entry NC(=O)c1cnc(Nc2ccc(C3CCOCC3)cc2)cc1NCc1cn(CCN2CCCCC2)nn1 [Example 201] , its IC50 = > 1000 nM

Param item: CCC(=O)N1CCC(c2ccc(Nc3cc(NCC4(O)CCCC4)c(C(N)=O)cn3)cc2)CC1 [Example 193] ; param system: JAK3 (Homo sapiens, UniProt P52333); output IC50: 10 to 100 nM
